- protocol summary: NCI Yeast Anticancer Drug Screen. Data for the mlh1 rad18 strain (AID 175)
- conditions used: S. cerevisiae mlh1 rad18 strain growth inhibition; at 50.0 µM
- Experimental: Growth inhibition of yeast strains with defined genetic alterations is measured as a screen for potential anti-cancer activity. Selected strains with alterations in DNA damage repair or cell cycle control were exposed to compounds and growth inhibition was measured relative to vehicle treated controls. The strain used in this assay is mlh1 rad18
About 79,000 compounds went through this panel and 15% of them were active in at least one assay; those are over-represented in the sample as a whole. Activity calls are given as the source filed them. No stated cut-off is given here; in the data, active means growth inhibition above about 70%; inactive means the rest.
Outcomes: active, inactive

compound	category label
Cc1cc(C)cc(C(O)(C(=O)O)c2ccccc2)c1 (stereo not given)	inactive
COc1ccc(C(N)Cc2cc(OC)c(OC)c(OC)c2)cc1 (stereo not given)	inactive
NC1=C(c2nc(-c3ccccc3)cs2)C(c2ccco2)c2c(c3ccccc3oc2=O)O1 (stereo not given)	inactive
CN(C)c1ccc(C=Cc2ccc([N+](=O)[O-])cc2)cc1.[C-]#[O+].[C-]#[O+].[C-]#[O+].[Cr]	inactive
O.O.O=Cc1ccccc1O.O=Cc1ccccc1O.[Ni]	active

* * *

- protocol summary: NCI Yeast Anticancer Drug Screen. Data for the sgs1 mgt1 strain (AID 161);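 further: 0% = growth of cultures given vehicle only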
- conditions used: S. cerevisiae sgs1 mgt1 strain, at 50.0 µM, stronger effect = higher value
About 79,000 compounds went through this panel and 15% of them were active in at least one assay; those are over-represented in the sample as a whole.
Below is a list of entries, each paired with its recorded growth inhibition value.

compound	growth inhibition [%]
C/C=C1/CC(C)C(C)(O)C(=O)OCC2CCN3CCC(OC1=O)C23 (stereo not drawn)	6.8
[CH3][Pb]([CH3])([CH3])[O]C(=O)c1ccc([N+](=O)[O-])cc1	25.1
C/C=C1/CN2CCC34C(=C(C(=O)OC)C1CC23)Nc1ccc(O)cc14 (stereo not drawn)	27.7
CCOP(=O)(OCC)C(C)(CC)/N=C(\N)NC#N (stereo not drawn)	-8.85
CC12CC3OC(=O)C1COC14OC5(C2C1=O)C(O)(CCC1C4CC(O)C2(O)CC=CC(=O)C12C)C(=O)OC35C (stereo not drawn)	8.3
CC1=CC2OC3CC(OC(=O)/C=C/C=C/C(OCCC4=CC(=O)OC4)C(C)O)C(C)(C2(CO)CC1)C31CO1 (stereo not drawn)	11.6
O=C([CH-]C(=O)C(F)(F)F)c1ccco1.O=C([CH-]C(=O)C(F)(F)F)c1ccco1.O=C([CH-]C(=O)C(F)(F)F)c1ccco1.[Ru+3]	-19.6
CCCCN1COC2CCCCC21 (stereo not drawn)	-43.2
CCCOCC(O)C[As](=O)(O)c1cccc(Cl)c1 (stereo not drawn)	0.3
CN1CCN(C)C(N2CCOCC2)C(C)(C)C1 (stereo not drawn)	-8.15
OCC1OC(n2cnc3cc(Cl)c(Cl)cc32)C(O)C1O (stereo not drawn)	21.9
O=S1(N2CC2)=NP(N2CC2)(N2CC2)=NP(N2CC2)(N2CC2)=N1 (stereo not drawn)	-16.8
CCN(CC)C1C=CCCC1 (stereo not drawn)	-20.1
C1CC[N-]CC1.CC(=N\O)/C(C)=N/O.CC(=N\O)/C(C)=N/O.[CH2-]c1ccccc1.[Co+2]	-13.4
CC(C)(C)NC(=O)CCl	-6.1
O=[N+]([O-])c1ccc(O)c(CBr)c1	7.55
CCCCCc1cc(O)c(CCCC)c(O)c1	99
C/C(=N\N=C(N)N)C(CN1CCCCC1)C(c1ccccc1)c1c(O)c2ccccc2oc1=O (stereo not drawn)	10.6
